Target: Androgen receptor (Rattus norvegicus) (UniProt P15207)
Sequence (whole entry): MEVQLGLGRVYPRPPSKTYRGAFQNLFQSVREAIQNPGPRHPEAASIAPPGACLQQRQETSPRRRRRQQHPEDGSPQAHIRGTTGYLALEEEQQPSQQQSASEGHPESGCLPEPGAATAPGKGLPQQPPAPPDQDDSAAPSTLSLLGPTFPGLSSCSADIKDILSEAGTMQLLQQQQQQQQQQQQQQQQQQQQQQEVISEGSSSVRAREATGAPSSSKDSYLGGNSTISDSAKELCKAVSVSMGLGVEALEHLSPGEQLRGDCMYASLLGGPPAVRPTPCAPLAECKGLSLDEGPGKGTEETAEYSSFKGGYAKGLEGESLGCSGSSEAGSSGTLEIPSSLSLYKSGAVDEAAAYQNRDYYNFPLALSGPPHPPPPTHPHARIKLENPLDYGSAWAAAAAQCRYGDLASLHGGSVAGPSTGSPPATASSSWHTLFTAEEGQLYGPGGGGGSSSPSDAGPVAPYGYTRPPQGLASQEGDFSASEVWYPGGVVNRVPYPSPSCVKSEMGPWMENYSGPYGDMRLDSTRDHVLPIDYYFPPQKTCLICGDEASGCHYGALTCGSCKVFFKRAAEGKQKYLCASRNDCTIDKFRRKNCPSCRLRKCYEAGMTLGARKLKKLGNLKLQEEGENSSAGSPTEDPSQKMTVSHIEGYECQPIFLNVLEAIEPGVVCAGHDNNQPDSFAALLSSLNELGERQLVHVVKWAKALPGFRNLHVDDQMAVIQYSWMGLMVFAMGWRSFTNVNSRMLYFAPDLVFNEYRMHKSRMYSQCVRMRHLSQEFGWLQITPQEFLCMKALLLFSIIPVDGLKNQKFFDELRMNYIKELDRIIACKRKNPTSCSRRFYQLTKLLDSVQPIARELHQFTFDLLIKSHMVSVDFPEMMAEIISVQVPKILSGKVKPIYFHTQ
measured.parameter: Competition factor

Some compounds with recorded Competition factor:
>  <compound>
CC12C(=CC(=O)C[C@@H]1S)C1CC1C1C2CCC2(C)C1C1CC1[C@@]21CCC(=O)O1 (some centres undefined)

>  <measured.parameter>
Competition factor

>  <assay.result>
63

$$$$
>  <compound>
C[C@H]1CC(=O)C=C2C3CC3C3C(CCC4(C)C3C3CC3[C@@]43CCC(=O)O3)C21C (some centres undefined)

>  <measured.parameter>
Competition factor

>  <assay.result>
70

$$$$

(P) CC12C(=CC(=O)[C@@H]3C[C@@H]31)C1CC1C1C2CCC2(C)C1C1CC1[C@@]21CCC(=O)O1 (some centres undefined)
(Q) CC12C=CC(=O)C=C1C1CC1C1C2CCC2(C)C1C1CC1[C@@]21CCC(=O)O1 (some centres undefined)
Param metric = Competition factor; output whichever of P , Q has the minimum value. Refer to your chosen item by its label in the answer.
P
(P: 25, Q: 150)
